Reported quenching constant kq values for the following compounds.
Tested on: E. coli ATCC 35218 membrane proteins (Trp^214 residues)
Test: Trp fluorescence quenching of bacterial membrane proteins (Stern-Volmer)
Type: binding, Escherichia coli
Conditions: kq = KSV/τ0

As a guide, the following entries are already answered.
1) CC1CCC2(OC3CC4C5CC=C6CC(O)CCC6(C)C5CCC4(C)C3C2C)SC1 (stereo not drawn) : 10.02 ± 0.28 10^12 M^−1s^−1
2) C[C@@H]1CC[C@@]2(OC1)O[C@H]1C[C@H]3[C@@H]4CC=C5C[C@@H](O)CC[C@]5(C)[C@H]4CC[C@]3(C)[C@H]1[C@@H]2C : 6.76 ± 0.35 10^12 M^−1s^−1
3) CC1CCC2(OC3CC4C5CC=C6CC(O)CCC6(C)C5CCC4(C)C3C2C)S(=O)(=O)C1C (stereo not drawn) : 4.94 ± 0.17 10^12 M^−1s^−1
4) CC1CCC2(OC3CC4C5CC=C6CC(O)CCC6(C)C5CCC4(C)C3C2C)[S+]([O-])C1 (stereo not drawn) [Sulfoxide 6] : 2.92 ± 0.36 10^12 M^−1s^−1
5) CC1CCC2(CC1)O[C@H]1C[C@H]3[C@@H]4CC[C@H]5C[C@@H](O)CC[C@]5(C)[C@H]4CC[C@]3(C)[C@H]1[C@@H]2C (stereo partly drawn) : 4.04 ± 0.45 10^12 M^−1s^−1

Return quenching constant kq for the following compound: CC1CCC2(OC3CC4C5CC=C6CC(O)CCC6(C)C5CCC4(C)C3C2C)S(=O)(=O)C1 (stereo not drawn)
5.92 ± 0.16 10^12 M^−1s^−1

Data provenance is paper PMC9822051.
